assay system: GTPase KRas (Homo sapiens, UniProt P01116, G12D)
Sequence (P01116 whole entry G12D): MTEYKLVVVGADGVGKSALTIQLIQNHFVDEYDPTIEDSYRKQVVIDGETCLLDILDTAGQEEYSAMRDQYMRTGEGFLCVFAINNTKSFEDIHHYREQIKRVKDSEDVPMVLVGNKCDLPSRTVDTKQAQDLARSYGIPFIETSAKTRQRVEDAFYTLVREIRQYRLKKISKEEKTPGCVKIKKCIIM
experimental protocol: Inhibition of recombinant biotinylated KRAS G12D mutant (unknown origin) assessed as inhibition of SOS-catalyzed nucleotide exchange preincubated for 60 mins followed by addition of human SOS protein and unlabeled GTP and measured after 60 mins by TR-FRET analysis
pIC50: −log10 of the molar value. *1 amine or outer side, *2 acyl side, *3 side chain or, on linkers, in order; H or OH if unused. Where a SMILES comes first, the peptide text is derived from it. Bridges are numbered along the chain shown (N, C = ends). [ ]: non-standard residue; d: D form. Bip = N[C@@H](Cc1ccc(-c2ccccc2)cc1)C(=O)O; X5 = C[C@H]1CCN([*:1])[C@@H]1C(=O)[*:2]; Aad = N[C@@H](CCCC(=O)O)C(=O)O

# molecule, pIC50
data = [
    ("CC[C@H](C)[C@@H]1NC(=O)[C@H](Cc2ccc(-c3ccccc3)cc2)NC(=O)[C@H](CC(C)C)NC(=O)[C@@H]2CCCN2C(=O)[C@@H](NC(=O)[C@H](CCCNC(=N)N)NC(=O)[C@H](CCCNC(=N)N)NC(C)=O)CSSC[C@@H](C(=O)N[C@@H](CCCNC(=N)N)C(=O)N[C@@H](CCCNC(=N)N)C(N)=O)NC(=O)[C@H](CCCC(=O)O)NC(=O)[C@@H]2[C@@H](C)CCN2C(=O)[C@H](CC(=O)O)NC(=O)[C@H](Cc2ccc(O)cc2)NC(=O)[C@H](CO)NC1=O (Ac-RRCPL[Bip]ISYD[X5][Aad]CRR-NH2; disulfide 3-13)", 7.37),
]

From: ChEMBL document CHEMBL5131563
